These entries and their values trace back to ChEMBL document CHEMBL1142561.

# assay info: Cytotoxicity against mouse RAW264.7 cells assessed as cell viability at 200 uM after 16 hrs by MTT assay
# Type: cell-based
# condition label: read-out: Activity
measure name: viability at 16 h, 200 µM

Can you share its viability at 16 h, 200 µM? I mean this molecule: "CC(C)=CCC1(CC=C(C)C)C(=O)C(O)=C(O)C1=O" > 95%

====

# Tested on: RAW264.7
# assay info: Inhibition of LPS/IFN-gamma-induced NO production in mouse RAW264.7 cells at non cytotoxic concentration after 16 hrs
# Assay type: functional
Below: a set of entries, each annotated with reported inhibition (INH).

Consider the reported inhibition (INH) for these compounds:
Suppose we examine the compound CC(C)=CCC1=C2OC(C)(C)C=CC2(CC=C(C)C)C(=O)C(C(=O)CC(C)C)=C1O (stereo unspecified) [LUPULONE A] ; what inhibition (INH) value has been reported? <40%

// query inhibition (INH) value for entry CC(C)=CCC1=C(O)C(C(=O)CC(C)C)=C(O)C(CC=C(C)C)(CC=C(C)C)C1=O [LUPULONE] <40%

Entry CC(C)=CCC1(CC=C(C)C)C(=O)C2=C(OC(C(C)(C)O)C2)C(C(=O)CC(C)C)=C1O (stereo unspecified) [LUPULONE C] has what inhibition (INH)? <40%

Which value of inhibition (INH) has been reported for CC(C)=CCC1=C2OC(C(C)(C)O)CC2(CC=C(C)C)C(=O)C(C(=O)CC(C)C)=C1O (stereo unspecified) [LUPULONE D] in the records? <40%

Requested read-out: inhibition (INH). Entry: CC(C)=CCC1=C2OC(C(C)(C)O)CC2(CC=C(C)C)C(=O)C(C(=O)C(C)C)=C1O (stereo unspecified) [LUPULONE E] <40%

Others:
Please give the measured inhibition (INH) for this compound: CC(C)=CCC1=C2OC(C)(C)C=CC2(CC=C(C)C)C(=O)C(C(=O)C(C)C)=C1O (stereo unspecified) [LUPULONE B] <40%
